# GI50 per record follows
System: UACC-257
test_summary: NCI tumour cell line growth inhibition, 48 h
Calls of active or inactive are those of the source. Cut-off read from the data, not from the text of the source: active = GI50 up to about 1.1 µM and inactive = higher.

molecule="COc1cc(O)c2c(c1)C(=O)c1cc3c(c(O)c1C2=O)C(OC1OC(C)C(OC)C(O)C1OC)C(OC)C(C)(O)C3=O (configuration not stated)" endpoint=GI50 result="4.28 µM (inactive)"

Please look at the following molecule next.
Can you share its GI50? I mean this molecule: O=[N+]([O-])C1(CO)COC(CCc2ccccc2)OC1 (configuration not stated)
> 100 µM (inactive)

----------
Tested on: MDA-MB-435
test_summary: NCI tumour cell line growth inhibition, 48 h
Active and inactive are the calls of the source. Rule as the data show it: active = GI50 up to about 1.1 µM and inactive = higher. Where a SMILES comes first, the peptide text is derived from it. [ ]: non-standard residue; d: D form. ξ: configuration not given here. ξThz(5,5-Me2) = CC1(C)SCNC1C(=O)O
Respond only with the outcome that fits, drawn from active, inactive

A selection of reference data follows.
compound=COc1ccc2cc(CNCCCCCCNC(=O)Nc3cccc4ccccc34)ccc2c1 cat=inactive
compound=Cn1c(=O)ccc2c(=O)c3ccccc3oc21 cat=inactive
compound=Cn1c(=O)c2sc3c4sc5c(=O)n(C)c6ccccc6c5c4sc3c2c2ccccc21 cat=inactive

What outcome does the record of this test show for CC(CC(=O)O)C(C(=O)O)C(=O)O (stereo not given) ?
inactive

What outcome does the record of this test show for `Cc1cc(CN(Cc2ccccc2)Cc2nc3ccccc3[nH]2)c(O)c(CN(Cc2nc3ccccc3[nH]2)Cc2nc3ccccc3[nH]2)c1` ?
inactive

What outcome does the record of this test show for `CCOc1cc(NC(C)=O)ccc1C(=O)NN1C(=O)/C(=C/c2ccco2)N=C1c1ccccc1` ?
inactive

What outcome does the record of this test show for COC(=O)C(C)(Cc1ccc2c(c1)nnn2C(C)=O)NC(C)=O (stereo not given) ?
inactive

What outcome does the record of this test show for CSCC[C@H](NC(=O)[C@H](CC(C)C)NC(=O)[C@H](Cc1c[nH]cn1)NC(=O)CNC(=O)C1N(C(=O)[C@@H](C)NC(=O)[C@H](Cc2c[nH]c3ccccc23)NC(=O)[C@H](CCC(N)=O)NC(=O)[C@@H](N)CC(N)=O)CSC1(C)C)C(N)=O (stereo not given in full) (H-NQW[dA][ξThz(5,5-Me2)]GHLM-NH2) ?
inactive

Ref: ChEMBL document CHEMBL1201862
